experiment: gradient 5% acetonitrile 3 min, to 50% in 2 min, to 85% in 15 min, held 3 min, 100 µL/min; settings: column: Zorbax Extend-C18 2.1 x 50 mm; eluents: water / acetonitrile, 0.1% formic acid
endpoint: RP-LC retention time (s)

Cc1cccc(NC(=O)Cn2nc(N3CCCC3)c3ccccc3c2=O)c1C; 927
COc1cc(-c2nc3ccc(C)cn3c2Nc2ccc3c(c2)OCCO3)ccc1O; 636
CN1CCC(N2CCN(S(=O)(=O)c3ccccc3C(F)(F)F)CC2)C1=O (stereo unspecified); 594
COc1cc(OC)cc(N2N=NC3C(=O)N(c4ccc(F)cc4)C(=O)C32)c1 (stereo unspecified); 907
Cc1cc(C)n(CCC(=O)NC2CCN(c3ccc(=O)[nH]n3)C2)n1 (stereo unspecified); 579
Cc1ccc(CNC(=O)CN2C(=O)CSc3cccn3-c3ccccc32)cc1; 1110

1 = O=C(Cn1nc(C(=O)N2CCOCC2)cc1C1CC1)NCCCN1CCCC1=O
2 = O=C(N[C@H]1C[C@@H]2C[C@H]1CN2C(=O)Nc1ccc2c(c1)OCCO2)c1ccccc1
**Q:** Determine, for 1 and 2 , which has the greater value of RP-LC retention time. Your answer should be the label of the entry you select.
**A:** 2
(2: 937 s, 1: 566 s)
